test system: SARS-CoV-2 (B.1); test: Anti-SARS-CoV-2 activity in Vero E6 cells (viral yield by qRT-PCR); type: cell-based; conditions: Severe acute respiratory syndrome coronavirus 2, Vero C1008; MOI 0.05, 48 h
Sorting guide: entries reporting EC50 beneath 2 µM go in the 1.0 pile, the rest go in the 0.0 pile.

Example entries begin here.
Field: below-cutoff. Rule: recorded EC50 strictly less than 2 µM. Subject: N#C[C@@]1(c2ccc3c(N)ncnn23)O[C@H](CO)[C@@H](O)[C@H]1O [GS-441524, reference compound]
1.0

Moving on to the next compound: CCC(CC)COC(=O)[C@H](C)N[P@](=O)(OC[C@H]1O[C@@](C#N)(c2ccc3c(N)ncnn23)[C@H](O)[C@@H]1O)Oc1ccccc1 [Remdesivir, remdesivir, reference compound]
0.0

Try this compound next: N#C[C@@]1(c2ccc3c(N)ncnn23)O[C@H](COC(=O)c2ccccc2)[C@@H](O)[C@H]1O [ATV013]
0.0

---
API: query returns whether the compound falls strictly under 2 µM in EC50. Query: CC(C)CC(=O)OC[C@H]1O[C@@](C#N)(c2ccc3c(N)ncnn23)[C@H](O)[C@@H]1O [ATV017]
0.0

What do you get for CCC(CC)C(=O)OC[C@H]1O[C@@](C#N)(c2ccc3c(N)ncnn23)[C@H](O)[C@@H]1O [ATV011] ?
0.0

Same again, this time with CCCC(=O)OC[C@H]1O[C@@](C#N)(c2ccc3c(N)ncnn23)[C@H](O)[C@@H]1O [ATV009]
1.0

Please do the same for CC(C)C(=O)OC[C@H]1O[C@@](C#N)(c2ccc3c(N)ncnn23)[C@H](O)[C@@H]1O [ATV006] as well.
1.0
